- SYSTEM NAME: D(2) dopamine receptor (Bos taurus)
- EXPERIMENT NOTES: Affinity for Dopamine receptor D2 was evaluated from the ability to displace [3H]spiroperidol from homogenized bovine pituitary
Checkbox rule: K Bind lower than 0.7 µM = Met; K Bind not lower than 0.7 µM = Not met.

Record CCCN(CCC)CC1CCc2cc(F)c(O)cc2C1 (configuration not stated) : is its K Bind strictly below 0.7 µM?
Not met

Record CCCN(CCC)C1CCc2cc(O)c(O)c(Cl)c2C1 (configuration not stated) : is its K Bind strictly below 0.7 µM?
Met

Record NC1CCc2c(cc(O)c(O)c2Cl)C1 (configuration not stated) : is its K Bind strictly below 0.7 µM?
Met

Record CN(C)C1CCc2c(ccc(O)c2Cl)C1 (configuration not stated) : is its K Bind strictly below 0.7 µM?
Not met

Record NC1CCc2cc(F)c(O)cc2C1 (configuration not stated) : is its K Bind strictly below 0.7 µM?
Met

Record CCCN(CCC)C1CCc2cc(Cl)c(O)c(Cl)c2C1 (configuration not stated) : is its K Bind strictly below 0.7 µM?
Not met

Record CN(C)C1CCc2cc(Cl)c(O)cc2C1 (configuration not stated) : is its K Bind strictly below 0.7 µM?
Not met

Record NC1CCc2c(ccc(O)c2Cl)C1 (configuration not stated) : is its K Bind strictly below 0.7 µM?
Not met

Record NC1CCc2cc(O)c(O)c(F)c2C1 (configuration not stated) : is its K Bind strictly below 0.7 µM?
Not met

Record NC1CCc2cc(O)c(O)c(Cl)c2C1 (configuration not stated) : is its K Bind strictly below 0.7 µM?
Not met

Record NC1CCc2c(cc(O)c(O)c2F)C1 (configuration not stated) : is its K Bind strictly below 0.7 µM?
Met

Record CN(C)C1CCc2cc(F)c(O)cc2C1 (configuration not stated) : is its K Bind strictly below 0.7 µM?
Met
